// reported viability, T/C for each item listed
System: 349418-098-R-PDC complex spheroid viability;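 also: spheroids exposed to compound for seven days before viability readout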
Assay: Anticancer human tumor 349418-098-R-PDC patient-derived lung adenocarcinoma cell line growth inhibition [RAS]
Conditions: second compound 10 µM; first compound 0.0316 µM; active compounds read low
measured_quantity: viability, T/C (%)

CC(=O)OC12COC1CC(O)C1(C)C(=O)C(O)C3=C(C)C(OC(=O)C(O)C(NC(=O)OC(C)(C)C)c4ccccc4)CC(O)(C(OC(=O)c4ccccc4)C21)C3(C)C (stereo not given) + C#Cc1c(F)ccc2cc(O)cc(-c3ncc4c(N5CC6CCC(C5)N6)nc(OCC56CCCN5CC(F)C6)nc4c3F)c12
7.77
CC(C)n1nc(-c2ccc3oc(N)nc3c2)c2c(N)ncnc21 + C#Cc1c(F)ccc2cc(O)cc(-c3ncc4c(N5CC6CCC(C5)N6)nc(OCC56CCCN5CC(F)C6)nc4c3F)c12
6.47
NC1c2ccccc2OC12CCN(c1cnc3c(N4CCCc5ncccc54)n[nH]c3n1)CC2 (stereo not given) + C#Cc1c(F)ccc2cc(O)cc(-c3ncc4c(N5CC6CCC(C5)N6)nc(OCC56CCCN5CC(F)C6)nc4c3F)c12
85.3
CC(C)NCC(C(=O)N1CCN(c2ncnc3c2C(C)CC3O)CC1)c1ccc(Cl)cc1 (stereo not given) + C#Cc1c(F)ccc2cc(O)cc(-c3ncc4c(N5CC6CCC(C5)N6)nc(OCC56CCCN5CC(F)C6)nc4c3F)c12
60.7
CCN1CCN(Cc2ccc(Nc3ncc(F)c(-c4cc(F)c5nc(C)n(C(C)C)c5c4)n3)nc2)CC1 + C#Cc1c(F)ccc2cc(O)cc(-c3ncc4c(N5CC6CCC(C5)N6)nc(OCC56CCCN5CC(F)C6)nc4c3F)c12
14.3
